- method summary: Stability of compound in SGF assessed as half-life measured after 24 hrs by UPLC-MS analysis
- Format: ADME
endpoint name: half-life

Which half-life is listed for Cc1ccc(-c2nc3ccccc3s2)cc1NC(=O)c1cc([N+](=O)[O-])c(N2CCN(C)CC2)cc1Cl ?
> 24 h

* * *

- method summary: Aqueous solubility of compound in 1-propanol at pH 7.4 incubated for 18 hrs by UV spectrum analysis
- Format: physicochemical
- condition: 1-propanol (aqueous, pH 7.4), pH 7.4
# maps each entry to its solubility at 18 h

| smiles representation | solubility at 18 h |
| --- | --- |
| Cc1ccc(-c2nc3ccccc3s2)cc1NC(=O)c1cc([N+](=O)[O-])c(N2CCN(C)CC2)cc1Cl | ≤ 0.3 µM |
| O=C(Nc1cc(-c2nc3ccccc3s2)ccc1Br)c1cc([N+](=O)[O-])ccc1Cl | < 1.56 µM |
| Cc1ccc(-c2nc3ccccc3s2)cc1NC(=O)c1cnccc1Cl | < 1 µM |
| O=C(Nc1cccc(-c2nc3ccccc3s2)n1)c1cnccc1Cl | < 1.56 µM |
| Cc1ccc(-c2nc3ncccc3o2)cc1NC(=O)c1cc([N+](=O)[O-])ccc1Cl | < 1.56 µM |

Which solubility at 18 h is listed for Cc1ccc(-c2nc3ccccc3s2)cc1NC(=O)c1cc([N+](=O)[O-])ccc1F ?
< 1.56 µM

Which solubility at 18 h is listed for O=C(Nc1cccc(-c2nc3ccccc3s2)c1)c1cc([N+](=O)[O-])ccc1Cl ?
< 1 µM

* * *

- method summary: Cytotoxicity against human BJ cells assessed as inhibition of cell growth incubated for 72 hrs by CellTiter-Glo luminescence assay
- Type: toxicity, cell-based
endpoint name: EC50 at 72 h

| compound | EC50 at 72 h |
| --- | --- |
| O=C(Nc1cccc(-c2ncco2)c1)c1cc([N+](=O)[O-])ccc1Cl | > 18 µM |
| Cc1ccc(-c2nc3ccccc3s2)cc1NC(=O)c1cc(C(F)(F)F)ccc1Cl | > 15 µM |
| CSc1ccc(Cl)c(C(=O)Nc2cccc(-c3nc4ccccc4s3)c2)c1 | > 25 µM |
| Cc1ccc(-c2nnn[nH]2)cc1NC(=O)c1cc([N+](=O)[O-])ccc1Cl | > 18 µM |

Which EC50 at 72 h is listed for Cc1ccc(-c2nc3ccccc3s2)cc1NC(=O)c1cc(C(=O)O)ccc1Cl ?
> 15 µM

Which EC50 at 72 h is listed for Cc1ccc(-c2nc3ccccc3s2)cc1NC(=O)c1cnccc1C(F)(F)F ?
> 14 µM

Which EC50 at 72 h is listed for Cc1ccc(-c2nc3ccccc3s2)cc1NC(=O)c1cc(NC(=O)OC(C)(C)C)ccc1Cl ?
> 15 µM

Which EC50 at 72 h is listed for Cc1ccc(-c2nc3ccccc3s2)cc1NC(=O)c1cnccc1C#N ?
> 13 µM

Which EC50 at 72 h is listed for Cc1ccc(-c2nc3ccccc3s2)cc1NC(=O)c1cc(C#N)ccc1Cl ?
> 15 µM

Which EC50 at 72 h is listed for Cc1nc(-c2cccc(NC(=O)c3cc([N+](=O)[O-])ccc3Cl)c2)sc1C ?
> 17 µM

Which EC50 at 72 h is listed for Cc1ccc(-c2nc3ccccc3s2)cc1NC(=O)c1cc([N+](=O)[O-])ccc1C#N ?
> 17 µM

Which EC50 at 72 h is listed for C[S+]([O-])c1ccc(Cl)c(C(=O)Nc2cccc(-c3nc4ccccc4s3)c2)c1 (stereo unspecified) ?
> 25 µM

Which EC50 at 72 h is listed for O=C(Nc1cccc(-c2nc3ccccc3s2)c1)c1cc([N+](=O)[O-])ccc1Cl ?
> 15 µM

Which EC50 at 72 h is listed for CS(=O)(=O)c1ccc(Cl)c(C(=O)Nc2cccc(-c3nc4ccccc4s3)c2)c1 ?
> 25 µM

Which EC50 at 72 h is listed for O=C(Nc1cccc(-c2nccs2)c1)c1cc([N+](=O)[O-])ccc1Cl ?
> 18 µM

Which EC50 at 72 h is listed for Cc1ccc(-c2nnn[nH]2)nc1NC(=O)c1cnccc1Cl ?
> 18 µM

Which EC50 at 72 h is listed for Cc1ccc(-c2nc3ccccc3s2)cc1NC(=O)c1cc([N+](=O)[O-])ccc1F ?
> 17 µM

Which EC50 at 72 h is listed for O=C(NC1CCCC(c2nc3ccccc3s2)C1)c1cc([N+](=O)[O-])ccc1Cl (stereo unspecified) ?
> 15 µM

Which EC50 at 72 h is listed for Cc1ccc(-c2nc3ccccc3s2)cc1NC(=O)c1cc([N+](=O)[O-])ccc1Cl ?
> 25 µM

Which EC50 at 72 h is listed for Cc1ccc(-c2nc3ncccc3o2)cc1NC(=O)c1cc([N+](=O)[O-])ccc1Cl ?
> 25 µM

* * *

- method summary: Cytotoxicity against HEK293 cells assessed as inhibition of cell growth incubated for 72 hrs by CellTiter-Glo luminescence assay
- Assay type: toxicity, cell-based
- condition: human
endpoint name: EC50 at 72 h

Which EC50 at 72 h is listed for Cc1ccc(-c2nc3ccccc3s2)cc1NC(=O)c1cc([N+](=O)[O-])c(N2CCN(C)CC2)cc1Cl ?
> 25 µM

* * *

- method summary: Metabolic stability in […] mouse liver microsomes assessed as half-life at 20 uM measured after 2 hrs by UPLC-MS analysis
- Type: ADME, Microsome
endpoint name: log10(half-life at 20 µM) (log10 of the value in min)
log10 half-life at 20 µM, min

Which log10(half-life at 20 µM) is listed for O=C(Nc1cc(-c2nc3ccccc3s2)ccc1Br)c1cc([N+](=O)[O-])ccc1Cl ?
0.23

* * *

- method summary: Clearance in C57BL/6 mouse at 50 mg/kg, po measured after 144 hrs by LC-MS/MS analysis
- Assay type: ADME, organism-based
- condition: in vivo
endpoint name: CL/F

Which CL/F is listed for Cc1ccc(-c2nc3ccccc3s2)cc1NC(=O)c1cc([N+](=O)[O-])c(N2CCN(C)CC2)cc1Cl ?
0.357 mL/min

* * *

- method summary: Permeability of compound at pH 7.4 incubated for 30 mins by PAMPA-GIT assay
- Assay type: ADME
- condition: read-out: permeability
endpoint name: Papp at 0.5 h (×10⁻⁶ cm/s)
Write it as a number; the unit ×10⁻⁶ cm/s goes unstated.

Which Papp at 0.5 h is listed for Cc1ccc(-c2nc3ccccc3s2)cc1NC(=O)c1cc([N+](=O)[O-])c(N2CCN(C)CC2)cc1Cl ?
237

* * *

- method summary: Stability of compound in PBS at pH 5 assessed as half-life measured after 48 hrs by UPLC-MS analysis
- Format: physicochemical
endpoint name: half-life

Which half-life is listed for Cc1ccc(-c2nc3ccccc3s2)cc1NC(=O)c1cc([N+](=O)[O-])c(N2CCN(C)CC2)cc1Cl ?
> 1440 min

* * *

- method summary: Protein binding in human plasma at 20 uM incubated for 18 hrs by UPLC-MS analysis
- Format: ADME, cell-free
- condition: read-out: PPB (converted)
endpoint name: fraction unbound at 18 h, 20 µM
// print number alone

Which fraction unbound at 18 h, 20 µM is listed for Cc1ccc(-c2nc3ccccc3s2)cc1NC(=O)c1cc([N+](=O)[O-])c(N2CCN(C)CC2)cc1Cl ?
0.002

* * *

- method summary: Metabolic stability in rat liver microsomes assessed as half-life at 20 uM
- Type: ADME, Microsome
endpoint name: half-life at 20 µM

Which half-life at 20 µM is listed for Cc1ccc(-c2nc3ccccc3s2)cc1NC(=O)c1cc([N+](=O)[O-])c(N2CCN(C)CC2)cc1Cl ?
> 4 h

* * *

- method summary: Metabolic stability in human liver microsomes assessed as intrinsic clearance at 20 uM incubated for 2 hrs by UPLC-MS analysis
- Type: ADME, Microsome
- condition: read-out: CLH
endpoint name: CLint scaled at 20 µM

Which CLint scaled at 20 µM is listed for Cc1ccc(-c2nc3ccccc3s2)cc1NC(=O)c1cc([N+](=O)[O-])c(N2CCN(C)CC2)cc1Cl ?
< 6 mL/min/kg

* * *

- method summary: Metabolic stability in rat liver microsomes assessed as intrinsic clearance at 20 uM
- Assay type: ADME, Microsome
- condition: read-out: CLH
endpoint name: CLint scaled at 20 µM

Which CLint scaled at 20 µM is listed for Cc1ccc(-c2nc3ccccc3s2)cc1NC(=O)c1cc([N+](=O)[O-])c(N2CCN(C)CC2)cc1Cl ?
< 12 mL/min/kg

* * *

- method summary: Protein binding in rat plasma at 20 uM incubated for 18 hrs by UPLC-MS analysis
- Format: ADME, cell-free
- condition: read-out: PPB (converted)
endpoint name: fraction unbound at 18 h, 20 µM
// print number alone

Which fraction unbound at 18 h, 20 µM is listed for Cc1ccc(-c2nc3ccccc3s2)cc1NC(=O)c1cc([N+](=O)[O-])c(N2CCN(C)CC2)cc1Cl ?
0.007

* * *

- method summary: Oral bioavailability in Sprague-Dawley rat at 50 mg/kg measured after 45.3 hrs by LC/MS analysis
- Assay type: ADME, organism-based
- condition: in vivo
endpoint name: bioavailability (%)
Write it as a number; the unit % goes unstated.

Which bioavailability is listed for Cc1ccc(-c2nc3ccccc3s2)cc1NC(=O)c1cc([N+](=O)[O-])c(N2CCN(C)CC2)cc1Cl ?
14
